assay target: Adenosine receptor A1 (Homo sapiens) (UniProt P30542)
Sequence (P30542 whole entry): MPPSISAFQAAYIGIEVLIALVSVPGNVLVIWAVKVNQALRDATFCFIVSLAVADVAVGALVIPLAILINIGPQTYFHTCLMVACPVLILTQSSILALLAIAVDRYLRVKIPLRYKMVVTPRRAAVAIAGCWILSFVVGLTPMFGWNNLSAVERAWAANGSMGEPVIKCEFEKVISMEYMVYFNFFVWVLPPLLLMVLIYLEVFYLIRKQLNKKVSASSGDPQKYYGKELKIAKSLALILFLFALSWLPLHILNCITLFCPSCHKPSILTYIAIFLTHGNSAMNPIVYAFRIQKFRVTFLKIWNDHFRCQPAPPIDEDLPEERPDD
experiment summary: Displacement of [3H]DPCPX from human adenosine A1 receptor expressed in CHO cell membranes at 1 uM incubated for 60 mins by scintillation counting method
condition label: Cell membrane
measure name: inhibition (%)

>>> assay_result("CCN(CC)C(=O)C1=C(C)NC(=O)NC1c1ccoc1 (racemic)")
15
>>> assay_result("CCCC(=O)C1=C(C)NC(=O)NC1c1ccoc1 (racemic)")
1
>>> assay_result("CC(=O)C1=C(C)NC(=O)NC1c1ccoc1 (racemic)")
6

[1] CC1=C(C(=O)OC2CCCCC2)C(c2ccco2)NC(=O)N1 (racemic)
[2] CCC(C)OC(=O)C1=C(C)NC(=O)NC1c1cccs1 (racemic)
[3] COC(=O)C1=C(C)NC(=S)NC1c1ccsc1 (racemic)
[4] CC1=C(C(=O)OC(C)(C)C)C(c2ccco2)NC(=O)N1C (racemic)
Descending sort on inhibition required. Give the labels in the order specified.
4, 2, 3, 1
